experimental_system: full-length SHP2 (His6-tagged SHP2(2-527)) (Homo sapiens, UniProt Q06124)
Construct: His6-tagged SHP2(2-527); His6; made in house; host or cells: E. coli
Sequence (Q06124 2-527): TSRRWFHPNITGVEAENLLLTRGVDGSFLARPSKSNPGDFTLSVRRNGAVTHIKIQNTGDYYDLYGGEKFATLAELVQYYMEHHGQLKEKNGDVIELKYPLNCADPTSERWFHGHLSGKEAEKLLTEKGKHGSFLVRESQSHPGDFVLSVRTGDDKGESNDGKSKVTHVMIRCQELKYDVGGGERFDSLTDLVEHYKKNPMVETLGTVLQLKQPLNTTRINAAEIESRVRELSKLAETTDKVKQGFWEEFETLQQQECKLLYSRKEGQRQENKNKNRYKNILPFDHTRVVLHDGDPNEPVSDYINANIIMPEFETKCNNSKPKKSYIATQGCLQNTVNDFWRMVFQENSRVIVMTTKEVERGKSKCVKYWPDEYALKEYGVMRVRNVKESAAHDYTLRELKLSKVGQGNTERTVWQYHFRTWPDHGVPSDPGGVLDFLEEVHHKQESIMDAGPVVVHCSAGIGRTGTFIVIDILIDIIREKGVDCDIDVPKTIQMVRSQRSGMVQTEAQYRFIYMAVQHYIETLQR
test: SHP2 Enzymatic Assay (fluorescence intensity kinetic assay, DiFMUP hydrolysis)
Format: biochemical
attribute_measured: pIC50
As a rule, pIC50 stands for the negative log10 of the concentration, concentration in M.

QUERY: Which measured pIC50 belongs to `C[C@@H]1OCC2(CCN(c3cnc4nc(Sc5ccncc5F)ccc4n3)CC2)[C@@H]1N` , tested on full-length SHP2 (His6-tagged SHP2(2-527)) (Homo sapiens, UniProt Q06124)?
RESULT: 5.64

QUERY: Which measured pIC50 belongs to `C[Si]1(CN)CCN(c2cnc3nc(Sc4ccnc(N)c4Cl)ccc3n2)CC1` , tested on full-length SHP2 (His6-tagged SHP2(2-527)) (Homo sapiens, UniProt Q06124)?
RESULT: 7.57

QUERY: Which measured pIC50 belongs to `CN(CCN)c1cnc2nc(-c3cccc(Cl)c3Cl)ccc2n1` , tested on full-length SHP2 (His6-tagged SHP2(2-527)) (Homo sapiens, UniProt Q06124)?
RESULT: 6.49

QUERY: Which measured pIC50 belongs to `N#Cc1ccc2ncc(Sc3ccc4nc(N5CCC6(CC5)Cc5ccccc5[C@H]6N)cnc4n3)n2c1` , tested on full-length SHP2 (His6-tagged SHP2(2-527)) (Homo sapiens, UniProt Q06124)?
RESULT: 6.95

QUERY: Which measured pIC50 belongs to Nc1nccc(Sc2ccc3nc(N4[C@@H]5CCC[C@H]4CC(N)C5)cnc3n2)c1Cl (stereo partly drawn) , tested on full-length SHP2 (His6-tagged SHP2(2-527)) (Homo sapiens, UniProt Q06124)?
RESULT: 7.38

QUERY: Which measured pIC50 belongs to CNc1nccc(Sc2ccc3nc(N4CCCC(C)(N)CC4)cnc3n2)c1Cl (stereo not drawn) , tested on full-length SHP2 (His6-tagged SHP2(2-527)) (Homo sapiens, UniProt Q06124)?
RESULT: 7.05

QUERY: Which measured pIC50 belongs to NCC1CCN(c2cnc3nc(-c4cccc(Cl)c4Cl)ccc3n2)C1 (stereo not drawn) , tested on full-length SHP2 (His6-tagged SHP2(2-527)) (Homo sapiens, UniProt Q06124)?
RESULT: 6.08

QUERY: Which measured pIC50 belongs to `C[C@@H]1OCC2(CCN(c3cnc4nc(Sc5ccnc(N)c5C(F)(F)F)ccc4n3)CC2)[C@@H]1N` , tested on full-length SHP2 (His6-tagged SHP2(2-527)) (Homo sapiens, UniProt Q06124)?
RESULT: 6.80

QUERY: Which measured pIC50 belongs to `CC(C)(C#N)CNc1nccc(Sc2ccc3nc(N4CCC(C)(N)CC4)cnc3n2)c1Cl` , tested on full-length SHP2 (His6-tagged SHP2(2-527)) (Homo sapiens, UniProt Q06124)?
RESULT: 6.62

QUERY: Which measured pIC50 belongs to `C[C@@H]1OCC2(CCN(c3cnc4nc(Sc5ccnc(CO)c5Cl)ccc4n3)CC2)[C@@H]1N` , tested on full-length SHP2 (His6-tagged SHP2(2-527)) (Homo sapiens, UniProt Q06124)?
RESULT: 6.74

QUERY: Which measured pIC50 belongs to `C[C@@H]1OCC2(CCN(c3cnc4nc(Sc5c(F)cnc6[nH]ccc56)ccc4n3)CC2)[C@@H]1N` , tested on full-length SHP2 (His6-tagged SHP2(2-527)) (Homo sapiens, UniProt Q06124)?
RESULT: 7.13

QUERY: Which measured pIC50 belongs to `COc1cccc(Sc2ccc3nc(N4CCC(C)(N)CC4)cnc3n2)c1Cl` , tested on full-length SHP2 (His6-tagged SHP2(2-527)) (Homo sapiens, UniProt Q06124)?
RESULT: 7.00

====

experimental_system: full-length SHP2 (His6-tagged SHP2(2-527)) (Homo sapiens)
Construct: His6-tagged SHP2(2-527); His6; made in house; host or cells: E. coli
test: SHP2 Enzymatic Assay (fluorescence intensity kinetic assay, DiFMUP hydrolysis)
Type: biochemical
attribute_measured: log10 IC50 (log10 of the value in µM)
Recorded IC50 (log10, µM)

QUERY: Fill in: log10 IC50 of `Nc1nccc(Sc2ccc3nc(N4CCC(N)(CO)CC4)cnc3n2)c1Cl` is ___
RESULT: -1.00

QUERY: Fill in: log10 IC50 of `Nc1nccc(Sc2ccc3nc(N4CC5CCC(C4)N5)cnc3n2)c1Cl` is ___
RESULT: -0.89

QUERY: Fill in: log10 IC50 of `C[C@@H]1OCC2(CCN(c3cnc4nc(Sc5ccnc(N6CCS(=O)(=O)CC6)c5Cl)ccc4n3)CC2)[C@@H]1N` is ___
RESULT: -0.46

QUERY: Fill in: log10 IC50 of `Cn1ncc2cccc(Sc3ccc4nc(N5CCC(C)(N)CC5)cnc4n3)c21` is ___
RESULT: 0.41

QUERY: Fill in: log10 IC50 of `Nc1cc(Sc2ccc3nc(N4CCC5(CC4)Cc4ncccc4[C@H]5N)cnc3n2)c(Cl)cn1` is ___
RESULT: -1.04

QUERY: Fill in: log10 IC50 of CN(C)C1C[C@@H]2CC[C@@H](C1)N2c1cnc2nc(Sc3ccnc(N)c3Cl)ccc2n1 (stereo partly drawn) is ___
RESULT: -1.18

QUERY: Fill in: log10 IC50 of `C[C@@H]1OCC2(CCN(c3cnc4nc(Sc5cccc(Cl)c5Cl)ccc4n3)CC2)[C@@H]1N` is ___
RESULT: -1.19

QUERY: Fill in: log10 IC50 of `C[C@@H]1OCC2(CCN(c3cnc4nc(Sc5ccnc(N)c5F)ccc4n3)CC2)[C@@H]1N` is ___
RESULT: 0.09

QUERY: Fill in: log10 IC50 of `N[C@@H]1c2cccnc2CC12CCN(c1cnc3nc(Sc4ccnc(NCCO)c4Cl)ccc3n1)CC2` is ___
RESULT: -1.08

====

experimental_system: full-length SHP2 (His6-tagged SHP2(2-527)) (Homo sapiens)
Construct: His6-tagged SHP2(2-527); His6; made in house; host or cells: E. coli
test: SHP2 Enzymatic Assay (fluorescence intensity kinetic assay, DiFMUP hydrolysis)
Type: biochemical
attribute_measured: pIC50
As a rule, pIC50 stands for the negative log10 of the concentration, concentration in M.

QUERY: Fill in: pIC50 of NC1(CO)CCN(c2cnc3nc(Sc4cccc(Cl)c4Cl)ccc3n2)CC1 [Example 9] is ___
RESULT: 7.21

QUERY: Fill in: pIC50 of CC1(N)CCN(c2cnc3nc(Sc4ccnc(N5CCCC5)c4Cl)ccc3n2)CC1 [Example 49] is ___
RESULT: 7.20

QUERY: Fill in: pIC50 of C[C@@H]1OCC2(CCN(c3cnc4nc(Sc5cc(N)nc(Cl)c5Cl)ccc4n3)CC2)[C@@H]1N [Example 68] is ___
RESULT: 7.16

QUERY: Fill in: pIC50 of Nc1nccc(Sc2ccc3nc(N4CCC(N)(CCO)CC4)cnc3n2)c1Cl [Example 128] is ___
RESULT: 7.00

QUERY: Fill in: pIC50 of Nc1nccc(Sc2ccc3nc(N4C[C@@H]5CC[C@H]4CN5)cnc3n2)c1Cl [Example 208] is ___
RESULT: 7.17

QUERY: Fill in: pIC50 of C[C@@H]1C[C@H](N)CCN1c1cnc2nc(Sc3ccnc(N)c3Cl)ccc2n1 [Example 121] is ___
RESULT: 7.00

QUERY: Fill in: pIC50 of C[C@@H]1OCC2(CCN(c3cnc4nc(Sc5ccncc5C(F)(F)F)ccc4n3)CC2)[C@@H]1N [Example 188] is ___
RESULT: 6.82

QUERY: Fill in: pIC50 of N[C@@H]1c2ccccc2CC12CCN(c1cnc3nc(Sc4cnc5ccc(Cl)cn45)ccc3n1)CC2 [Example 127] is ___
RESULT: 7.09

QUERY: Fill in: pIC50 of Nc1nccc(Sc2ccc3nc(N4C5CNCC4C5)cnc3n2)c1Cl [Example 205] is ___
RESULT: 6.94

QUERY: Fill in: pIC50 of CNc1nccc(Sc2ccc3nc(N4CCC[C@](C)(N)CC4)cnc3n2)c1Cl (single isomer, unassigned) [Example 149] is ___
RESULT: 7.01

QUERY: Fill in: pIC50 of Nc1nccc(Sc2ccc3nc(N4C[C@@H]5C[C@H]4CN5)cnc3n2)c1Cl [Example 203] is ___
RESULT: 6.85
